Target: human Gal-3 (hGal-3) (Homo sapiens (Human))
Assay: competitive binding assay: biotinylated hGal-3 binding to microplate-adsorbed asialofetuin (ASF)
Conditions: Table 9; 2-OMe-Gal inhibitors; read-out: IC50 (Gal-3 inhibition)
measure: IC50

1) CO[C@@H]1[C@@H](n2cc(-c3cc(F)c(F)c(F)c3)nn2)[C@@H](O)[C@@H](CO)O[C@H]1S[C@H](c1ncccc1C)C1(O)CCS(=O)(=O)CC1 [Example 2.66.126R.I.]: 60 nM
2) CO[C@@H]1[C@@H](n2cc(-c3cc(F)c(F)c(F)c3)nn2)[C@@H](O)[C@@H](CO)O[C@H]1S[C@H](c1ncccc1C(F)(F)F)C1(O)CCCCC1 [Example 2.39.125R.I.]: 90 nM
3) CO[C@@H]1[C@@H](n2cc(-c3cc(F)c(F)c(F)c3)nn2)[C@@H](O)[C@@H](CO)O[C@H]1S[C@H](c1ncccc1C)C1(O)CCC(F)(F)CC1 [Example 2.44.126R.I.]: 70 nM
4) CO[C@@H]1[C@@H](n2cc(-c3cc(F)c(F)c(F)c3)nn2)[C@@H](O)[C@@H](CO)O[C@H]1S[C@H](c1ccccc1C)[C@]1(O)CCOC(C)(C)C1 [Example 2.43.102RS.I.]: 60 nM
5) CO[C@@H]1[C@@H](n2cc(-c3cc(F)c(F)c(F)c3)nn2)[C@@H](O)[C@@H](CO)O[C@H]1S[C@H](c1nccnc1C)C1(O)CCC(F)(F)CC1 [Example 2.44.129R.I.]: 50 nM

====

Target: human Gal-1 (hGal-1) (Homo sapiens (Human))
Sequence (P09382 whole entry): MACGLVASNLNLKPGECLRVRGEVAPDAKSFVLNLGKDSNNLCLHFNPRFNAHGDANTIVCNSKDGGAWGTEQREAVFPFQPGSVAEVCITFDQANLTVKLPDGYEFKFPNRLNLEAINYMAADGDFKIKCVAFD
IC50 vs 100 nM: less than gives rule met; not less than gives rule not met.

1) CC(C)c1ccccc1[C@@H](S[C@@H]1O[C@H](CO)[C@H](O)[C@H](n2cc(-c3cc(F)c(F)c(F)c3)nn2)[C@H]1O)C(C)(C)O [Example 2.31.105R.]: rule not met
2) CC(C)Cc1c(C(S[C@@H]2O[C@H](CO)[C@H](O)[C@H](n3cc(-c4cc(F)c(F)c(F)c4)nn3)[C@H]2O)C2(O)CCC(F)(F)CC2)noc1C1CC1 (some centres unmarked): rule not met
3) Cc1conc1[C@@H](S[C@@H]1O[C@H](CO)[C@H](O)[C@H](n2cc(-c3cc(F)c(F)c(F)c3)nn2)[C@H]1O)C1(O)CCS(=O)(=O)CC1 [Example 2.66.120R.]: rule met
4) OC[C@H]1O[C@@H](S[C@H](c2ncccc2C(F)(F)F)C2(O)CCCCC2)[C@H](O)[C@@H](n2cc(-c3cc(F)c(F)c(F)c3)nn2)[C@H]1O [Example 2.39.125R.]: rule not met
5) CS(=O)(=O)N1CCC(O)([C@H](S[C@@H]2O[C@H](CO)[C@H](O)[C@H](n3cc(-c4cc(F)c(F)c(F)c4)nn3)[C@H]2O)c2ccccc2C(F)(F)F)CC1 [Example 2.47.112R.]: rule not met

====

Biological target: human Gal-3 (hGal-3) (Homo sapiens (Human))
Assay: competitive binding assay: biotinylated hGal-3 binding to microplate-adsorbed asialofetuin (ASF)
Details: Gal-3 inhibition; binding of biotinylated hGal-3 to ASF; mean values; read-out: IC50
pIC50: −log10 of the molar value.
Note to self: class labels come from recorded pIC50, ranges listed here: b0 = under 6, b1 = from 6 up to 7, b2 = 7 and over

1) Cc1ccnnc1[C@H](S[C@@H]1O[C@H](CO)[C@H](O)[C@H](n2cc(-c3cc(F)c(F)c(F)c3)nn2)[C@H]1O)C1(O)CCC(F)(F)CC1 [Example 2.44.135S.]: b0
2) COC(=O)N1CCC(O)([C@@H](S[C@@H]2O[C@H](CO)[C@H](O)[C@H](n3cc(-c4cc(F)c(F)c(F)c4)nn3)[C@H]2O)c2ccccc2C(F)(F)F)CC1 [Example 2.50.112S.]: b0
3) CC(C)(O)[C@@H](S[C@@H]1O[C@H](CO)[C@H](O)[C@H](n2cc(-c3cc(F)c(F)c(F)c3)nn2)[C@H]1O)c1ccccc1Cl [Example 2.31.111S.]: b0
4) CC(C)(O)C(S[C@@H]1O[C@H](CO)[C@H](O)[C@H](n2cc(-c3cc(F)c(F)c(F)c3)nn2)[C@H]1O)c1ccccc1CCO (stereo partly drawn) [Example 2.31.108.]: b1
5) CC(C)(O)[C@H](S[C@@H]1O[C@H](CO)[C@H](O)[C@H](n2cc(-c3cc(F)c(F)c(F)c3)nn2)[C@H]1O)c1ccccc1Cl [Example 2.31.111R.]: b1
6) CC(C)c1ccccc1C(S[C@@H]1O[C@H](CO)[C@H](O)[C@H](n2cc(-c3cc(F)c(F)c(F)c3)nn2)[C@H]1O)C(C)(C)O (stereo partly drawn) [Example 2.31.105.]: b1
7) CC(C)(O)C(S[C@@H]1O[C@H](CO)[C@H](O)[C@H](n2cc(-c3cc(F)c(F)c(F)c3)nn2)[C@H]1O)c1ccccc1Cl (stereo partly drawn) [Example 2.31.111.]: b1
8) Cc1nc(C)c([C@@H](S[C@@H]2O[C@H](CO)[C@H](O)[C@H](n3cc(-c4cc(F)c(F)c(F)c4)nn3)[C@H]2O)C2(O)CCN(C)CC2)nc1C [Example 2.40.119R.]: b2
9) CC(C)(O)[C@@H](S[C@@H]1O[C@H](CO)[C@H](O)[C@H](n2cc(-c3cc(F)c(F)c(F)c3)nn2)[C@H]1O)c1ccccc1CCO [Example 2.31.108S.]: b0
10) CC(C)Cc1c([C@@H](S[C@@H]2O[C@H](CO)[C@H](O)[C@H](n3cc(-c4cc(F)c(F)c(F)c4)nn3)[C@H]2O)C2(O)CCC(F)(F)CC2)noc1C1CC1 [2.44.131 R.]: b2
11) Cc1c(F)cccc1[C@H](S[C@@H]1O[C@H](CO)[C@H](O)[C@H](n2cc(-c3cc(F)c(F)c(F)c3)nn2)[C@H]1O)C(C)(C)O (single isomer, unassigned) [Example 2.31.114R.]: b1
12) Cc1cccnc1[C@H](S[C@@H]1O[C@H](CO)[C@H](O)[C@H](n2cc(-c3cc(F)c(F)c(F)c3)nn2)[C@H]1O)C1(O)CCOCC1 [Example 2.41.126S.]: b0
13) CC(C)c1ccccc1[C@@H](S[C@@H]1O[C@H](CO)[C@H](O)[C@H](n2cc(-c3cc(F)c(F)c(F)c3)nn2)[C@H]1O)C(C)(C)O [Example 2.31.105R.]: b2
14) Cc1nc(C)c([C@@H](S[C@@H]2O[C@H](CO)[C@H](O)[C@H](n3cc(-c4cc(F)c(F)c(F)c4)nn3)[C@H]2O)C(C)(C)O)nc1C [Example 2.31.119R.]: b1
15) CCC(O)C(S[C@@H]1O[C@H](CO)[C@H](O)[C@H](n2cc(-c3cc(F)c(F)c(F)c3)nn2)[C@H]1O)c1ccccc1C(F)(F)F (stereo partly drawn) [Example 2.60.112.]: b1

====

Biological target: human Gal-3 (hGal-3) (Homo sapiens (Human), UniProt P17931)
Sequence (P17931 whole entry): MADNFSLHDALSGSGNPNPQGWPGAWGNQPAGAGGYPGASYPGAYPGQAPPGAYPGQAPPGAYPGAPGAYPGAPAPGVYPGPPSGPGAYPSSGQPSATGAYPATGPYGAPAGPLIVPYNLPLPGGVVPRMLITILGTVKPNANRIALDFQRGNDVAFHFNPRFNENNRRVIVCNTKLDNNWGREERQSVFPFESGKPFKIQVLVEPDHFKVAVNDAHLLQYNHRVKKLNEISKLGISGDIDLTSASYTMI
Test: competitive binding assay: biotinylated hGal-3 binding to microplate-adsorbed asialofetuin (ASF)
Conditions: Table 5; read-out: IC50 (Gal-3 inhibition)
pIC50: −log10 of the molar value.
measure: pIC50

1. Cc1ccccc1[C@H](S[C@@H]1O[C@H](CO)[C@H](O)[C@H](n2cc(-c3cc(F)c(F)c(F)c3)nn2)[C@H]1O)C1(O)CCCCC1 [Example 2.39.102S.]: 5.34
2. OC[C@H]1O[C@@H](S[C@H](c2ncccc2C(F)(F)F)C2(O)CCOCC2)[C@H](O)[C@@H](n2cc(-c3cc(F)c(F)c(F)c3)nn2)[C@H]1O [Example 2.41.125R.]: 7.52
3. OC[C@H]1O[C@@H](SC(c2ccccc2C(F)(F)F)C2(O)CCOCC2)[C@H](O)[C@@H](n2cc(-c3cc(F)c(F)c(F)c3)nn2)[C@H]1O (some centres unmarked): 6.96
4. Cc1ccccc1C(S[C@@H]1O[C@H](CO)[C@H](O)[C@H](n2cc(-c3cc(F)c(F)c(F)c3)nn2)[C@H]1O)C1(O)CC(C)C1 (some centres unmarked): 6.34
5. OC[C@H]1O[C@@H](S[C@@H](c2ncccc2C(F)(F)F)C2(O)CCC(F)(F)CC2)[C@H](O)[C@@H](n2cc(-c3cc(F)c(F)c(F)c3)nn2)[C@H]1O [Example 2.44.125S.]: 6.09
6. OC[C@H]1O[C@@H](S[C@H](c2ncccc2C(F)(F)F)C2(O)CCCCC2)[C@H](O)[C@@H](n2cc(-c3cc(F)c(F)c(F)c3)nn2)[C@H]1O [Example 2.39.125R.]: 7.00
7. Cc1ccccc1[C@H](S[C@@H]1O[C@H](CO)[C@H](O)[C@H](n2cc(-c3cc(F)c(F)c(F)c3)nn2)[C@H]1O)C1(O)CCCC1 [Example 2.38.102S.]: 5.56
8. Cc1noc(C2CC2)c1C(S[C@@H]1O[C@H](CO)[C@H](O)[C@H](n2cc(-c3cc(F)c(F)c(F)c3)nn2)[C@H]1O)C1(O)CCCCC1 (some centres unmarked): 6.68
9. OC[C@H]1O[C@@H](SC(c2ccccc2C(F)(F)F)C2(O)CCC(F)(F)CC2)[C@H](O)[C@@H](n2cc(-c3cc(F)c(F)c(F)c3)nn2)[C@H]1O (some centres unmarked): 6.52
10. Cc1conc1[C@@H](S[C@@H]1O[C@H](CO)[C@H](O)[C@H](n2cc(-c3cc(F)c(F)c(F)c3)nn2)[C@H]1O)C1(O)CCCCC1 [Example 2.39.120R.]: 6.70
11. CN1CCC(O)([C@@H](S[C@@H]2O[C@H](CO)[C@H](O)[C@H](n3cc(-c4cc(F)c(F)c(F)c4)nn3)[C@H]2O)c2ncccc2C(F)(F)F)CC1 [Example 2.40.125S.]: 5.44
12. OC[C@H]1O[C@@H](SC(c2ccccc2C(F)(F)F)C2(O)CC(F)(F)C2)[C@H](O)[C@@H](n2cc(-c3cc(F)c(F)c(F)c3)nn2)[C@H]1O (some centres unmarked): 6.60
13. Cc1nc(C)c([C@@H](S[C@@H]2O[C@H](CO)[C@H](O)[C@H](n3cc(-c4cc(F)c(F)c(F)c4)nn3)[C@H]2O)C2(O)CCC(F)(F)CC2)nc1C [Example 2.44.119R.]: 7.52
14. Cc1nc(C)c([C@H](S[C@@H]2O[C@H](CO)[C@H](O)[C@H](n3cc(-c4cc(F)c(F)c(F)c4)nn3)[C@H]2O)C2(O)CCC(F)(F)CC2)nc1C [Example 2.44.119S.]: 6.15
15. Cc1ccccc1C(S[C@@H]1O[C@H](CO)[C@H](O)[C@H](n2cc(-c3cc(F)c(F)c(F)c3)nn2)[C@H]1O)C1(O)CC(C)C1C (some centres unmarked): 6.25
16. CN1CCC(O)(C(S[C@@H]2O[C@H](CO)[C@H](O)[C@H](n3cc(-c4cc(F)c(F)c(F)c4)nn3)[C@H]2O)c2ccccc2C(F)(F)F)CC1 (some centres unmarked): 6.89
17. OC[C@H]1O[C@@H](SC(c2ncccc2C(F)(F)F)C2(O)CCOCC2)[C@H](O)[C@@H](n2cc(-c3cc(F)c(F)c(F)c3)nn2)[C@H]1O (some centres unmarked): 6.60
18. OC[C@H]1O[C@@H](S[C@@H](c2ccccc2Cl)C2(O)CCC(F)(F)CC2)[C@H](O)[C@@H](n2cc(-c3cc(F)c(F)c(F)c3)nn2)[C@H]1O [Example 2.44.111S]: 4.74
19. Cc1ccccc1[C@H](S[C@@H]1O[C@H](CO)[C@H](O)[C@H](n2cc(-c3cc(F)c(F)c(F)c3)nn2)[C@H]1O)C1(O)CCOCC1 [Example 2.41.102S.]: 5.13
20. CC(C)c1ccccc1[C@@H](S[C@@H]1O[C@H](CO)[C@H](O)[C@H](n2cc(-c3cc(F)c(F)c(F)c3)nn2)[C@H]1O)C1(O)CCC(F)(F)CC1 [Example 2.44.105R.]: 7.22
21. Cc1ccccc1C(S[C@@H]1O[C@H](CO)[C@H](O)[C@H](n2cc(-c3cc(F)c(F)c(F)c3)nn2)[C@H]1O)C1(O)CCCC1 (some centres unmarked): 6.74
22. Cc1ccccc1C(S[C@@H]1O[C@H](CO)[C@H](O)[C@H](n2cc(-c3cc(F)c(F)c(F)c3)nn2)[C@H]1O)C1(O)CCOCC1 (some centres unmarked): 7.05
23. Cc1conc1[C@@H](S[C@@H]1O[C@H](CO)[C@H](O)[C@H](n2cc(-c3cc(F)c(F)c(F)c3)nn2)[C@H]1O)C1(O)CCC(F)(F)CC1 [Example 2.44.120R.]: 6.96
